Test system: NCI-H226
method description: NCI tumour cell line growth inhibition, 48 h
Active and inactive are the calls of the source. Rule as the data show it: active = GI50 up to about 1.1 µM and inactive = higher.
Bench note: report the call from 1 for active, -1 for inactive

Completed entries (count: 6):
> print(dat)
                                   molecule  cat
1  CC(=O)NC1c2ccccc2C(C)(C)C12CCC1(CC2)OCCO1 (stereo not given)   -1
2  Oc1ccc2ccccc2c1-c1nnc(CCCCCCCCc2nnc(-c3c(O)ccc4ccccc34)o2)o1   -1
3          CC(C)=C1C(=O)c2c(Cl)sc(Cl)c2C1=O   -1
4  CCC1(c2c(F)c(F)c(N)c(F)c2F)CCC(=O)NC1=O (stereo not given)   -1
5              Cc1ccc2c(O)cc(-c3cccs3)nc2n1   -1
6  O=C(CC(=O)n1nc(-c2ccccc2)c(/N=N/c2ccccc2Cl)c1-c1ccccc1)Nc1ccc(Cl)cc1   -1

Recorded test outcome, item C#C/C=C/CC1OC(C(Br)CC)CC(Br)C2CC1O2 (stereo not given) -1

// return assay outcome for c1ccc(C(c2cccc3c2ccc2ccccc23)C(c2ccccc2)c2cccc3c2ccc2ccccc23)cc1 (stereo not given) -1

For "CCCCCCCCCCCCCCCCCC(=O)O[C@H](COC(=O)CCCCCCCCCCC)COC(=O)CCCCCCCCCCCCCCC" , which call appears in the assay record? -1

I would be grateful if you could indicate the recorded call for "Cc1c2cnccc2c(C)c2c1[nH]c1ccc(O)cc12" . 1

---

Tested on: SK-OV-3
method description: NCI tumour cell line growth inhibition, 48 h
Active and inactive are the calls of the source. Cut-off read from the data, not from the text of the source: active = GI50 up to about 1.1 µM and inactive = higher.
recorded metric: GI50

In the examples that follow, each entry is paired with its recorded GI50.
> print(dat)
                                   compound   experimental.value
1  CCOP1(=O)CC(C)=C(Cl)C(OC)C1 (stereo unspecified)  > 100 µM (inactive)
2  NC1=C(N2CCCCC2)C(=O)NC2=N/C(=C\c3ccco3)C(=O)N21  > 100 µM (inactive)
3  O=C1/C(=C/c2ccc(Cl)cc2)CCC/C1=C\c1ccc(O)c(CN2CCCCC2)c1     24 µM (inactive)

Need GI50, item "c1ccc(SCCCC(Sc2ccccc2)Sc2ccccc2)cc1" > 100 µM (inactive)

Which GI50 is listed for "CNc1ccc2nc(-c3ccc(OC(=O)N(C)C)cc3)cn2c1" ? 19 µM (inactive)

What value of GI50 has been recorded for this entry: CCOC(=O)C(=CNc1ccc(NC2=NCC(C)S2)cc1)C(=O)OCC (stereo unspecified) 60 µM (inactive)

---

Test system: BT-549
method description: NCI tumour cell line growth inhibition, 48 h
The source made the active and inactive calls. Cut-off read from the data, not from the text of the source: active = GI50 up to about 1.1 µM and inactive = higher.
// one of active, inactive, no free text

compound	cat
Cc1cc(C)nc(NS(=O)(=O)c2ccc(NC(=O)c3cccc4c(NNc5ccc(S(=O)(=O)N=C(N)N)cc5)c5ccccc5nc34)cc2)n1	inactive
O=NN(Cc1ccc(Cl)cc1)C(C(=O)O)c1ccccc1 (stereo not given)	inactive
CCC(C)(O)c1cnc(CC(C)C)c(=O)n1O (stereo not given)	inactive

Entry CN(C)CC1CC/C(=C\c2ccc(O)cc2)C1=O (stereo not given) : call = ? inactive

Write down the call the test reported for this compound. Item: "CN(CC(=O)O)c1ccc(/C=C/c2ccnc3ccccc23)cc1" inactive

Called result for Nc1nc(NCC2(CO)CC(CCc3ccccc3)C2)cc(=O)[nH]1 (stereo not given) inactive

Record lookup: outcome of this test for "Cc1cc(N(CCC#N)CCC#N)ccc1C(/N=N/c1ccc([N+](=O)[O-])cc1)=N\NC(=O)c1ccccc1" ? inactive

GET /call?item= COC(=O)C(C)(C)NC(=O)C(Cc1ccccc1)Nc1ncnc2c1ncn2-c1ccc(OC)cc1 (stereo not given) returns the recorded outcome of this test. inactive

Identify the outcome logged in this assay for the compound shown: "O=C1/C(=C/c2ccc(F)cc2)CNC/C1=C\c1ccc(F)cc1" active

Could you check what this test reported for CCNC(=O)C1CCCN1C(=O)C(CCCN=C(N)N)NC(=O)C(CC(C)C)NC(=O)C(Cc1c[nH]c2ccccc12)NC(=O)C(Cc1ccc(O)cc1)NC(=O)C(CO)NC(=O)C(Cc1c[nH]c2ccccc12)NC(=O)C(Cc1c[nH]cn1)NC(=O)C1CCC(=O)N1 (stereo not given) ? inactive

---

GI50 reference
Test system: HOP-18
method description: NCI tumour cell line growth inhibition, 48 h
Activity calls are given as the source filed them. No stated cut-off is given here; in the data, active = GI50 up to about 1.1 µM and inactive = higher.

> print(dat)
                                   compound  system.under.test  recorded.metric  experimental.value
1  O=C(/C=C/c1ccc(O)cc1)c1ccc(O)cc1 [4,4'-DIHYDROXYCHALCONE]             HOP-18             GI50  35.2 µM (inactive)

Consider the compound shown here: Cc1ccc(C2CC(c3ccc([N+](=O)[O-])cc3)=Nc3ccccc3S2)cc1 (stereo unspecified) What is its recorded GI50? 48.4 µM (inactive)

Consider the compound shown here: Cc1ccc(C(=O)Nc2ncn(C3CC(O)C(CO)O3)c(=O)n2)cc1 (stereo unspecified) What is its recorded GI50? > 68.2 µM (inactive)

Give the measured GI50 of CN(C)CC1CC/C(=C\c2ccc(O)cc2)C1=O (stereo unspecified) . 6.35 µM (inactive)

Endpoint output: GI50 of CC1=C(Cl)C=CP(=O)(OC(C)C)C1 (stereo unspecified) . Value? > 100 µM (inactive)

---

// reported GI50 per item
Tested on: SK-MEL-2
method description: NCI tumour cell line growth inhibition, 48 h
Active and inactive are the calls of the source. Cut-off read from the data, not from the text of the source: active = GI50 up to about 1.1 µM and inactive = higher. *1 amine or outer side, *2 acyl side, *3 side chain or, on linkers, in order; H or OH if unused. Where a SMILES comes first, the peptide text is derived from it. The star is where a group is joined. γGlu = O=C(O)[CH](CCC(=O)[*:2])N[*:1]; NHOH = ON*

> print(dat)
                                   compound  recorded.metric   experimental.value
1         Nc1n[nH]c2nc3ccc(C(F)(F)F)cc3nc12             GI50   23.3 µM (inactive)
2  CCOC(=O)C1=NN(c2ccccc2)C2=CC(C)=NN(C)C(=S)N21             GI50  > 100 µM (inactive)
3     O=C1Oc2ccccc2N/C1=C/C(=O)c1ccc(Cl)cc1             GI50  > 100 µM (inactive)

# input compound: OCC1OC(NC(=S)NCSCCC(F)(F)C(F)(F)C(F)(F)C(F)(F)C(F)(F)C(F)(F)F)C(O)C(O)C1O (stereo unspecified) ; wanted: its GI50 51.6 µM (inactive)

Param item = "NNC(=O)CNc1cccc(Br)c1" ; retrieve measured GI50. > 100 µM (inactive)

Suppose we examine the compound CCC1(c2c(F)c(F)c(N)c(F)c2F)CCC(=O)NC1=O (stereo unspecified) ; what GI50 value has been reported? > 100 µM (inactive)

Fill in: GI50 of Cc1nn(C(=O)c2ccc(Cl)cc2)c2c1C(c1ccc(Cl)cc1)SC(=N)N2 (stereo unspecified) is ___ > 10 µM (inactive)

What does the record list as GI50 for CCCCON1C[C@H](OC(C)=O)C(OC(C)=O)[C@H](OC(C)=O)C1 (stereo partly specified) ? > 100 µM (inactive)

// returns reported GI50 for input "O=C(CN1CCN(Cc2ccccc2)CC1)N1CCCn2c1nc1ccccc1c2=O" > 100 µM (inactive)

Return reported GI50; argument: NC(CCC(=O)NC(CCC(=O)NO)C(=O)NCC(=O)O)C(=O)O (stereo unspecified) (γGlu-Glu(NHOH)-Gly-OH; configuration not given here) > 100 µM (inactive)

---

Tested on: NCI-H522
method description: NCI tumour cell line growth inhibition, 48 h
Calls of active or inactive are those of the source. No stated cut-off is given here; in the data, active = GI50 up to about 1.1 µM and inactive = higher.
Log the outcome using a class from 1 for active, -1 for inactive

Record excerpt, results attached:
> print(dat)
                                   molecule  cat
1  CC(=O)[C@]1(O)Cc2c(O)c3c(c(O)c2C(OC2OC(C)C(O)C(O)C2F)C1)C(=O)c1ccccc1C3=O (some centres undefined)    1
2  CCOC(=O)CN1C(=O)c2c(NC(=O)C(=O)O)cccc2S1(=O)=O   -1
3  N#CCC(=O)N/N=C1/C(=O)N(c2cc(Cl)ccc2Cl)C(=O)C(=O)C1c1nc2ccccc2s1 (centres undefined)   -1

Please share the test call associated with CC(=O)OC1CC[C@@]2(C)C(=CC[C@@H]3[C@@H]2CC[C@]2(C)Nc4nn(S(C)(=O)=O)cc4C[C@@H]32)C1 (some centres undefined) . -1

For "COC(OC)c1cc2c(cc1C=O)OCO2" , which call appears in the assay record? -1

Fill in: this test's call for "O=C(c1ccc([N+](=O)[O-])cc1[N+](=O)[O-])N(/N=C/C=C/c1ccccc1)c1nnc(-c2ccccc2)c(-c2ccccc2)n1" is ___ -1

Any idea what this test logged for CCCCCCCCCCCC(=O)N(CCCCCCCCC)CC(O)C(O)C(OC1OC(CO)C(O)C(O)C1O)C(O)CO (centres undefined) ? -1

Write down the call the test reported for this molecule. Item: "O=C1OC(c2ccc(O)c(-c3ccccc3)c2)(c2ccc(O)c(-c3ccccc3)c2)c2c(Cl)c(Cl)c(Cl)c(Cl)c21" -1

// return assay outcome for COc1cc2c(cc1OC)[C@H]1C(COC(=O)Nc3ccccc3)CN1CC2 (some centres undefined) -1
